Method Notes: Plasma levels of eprinomectin in cattle after topical pour-on administration (HPLC with fluorescence detection)
Assay Context: bovine, in vivo, topical or ocular, 0.5 mg/kg

{"columns": ["Compound Structure String", "Tmax"],
 "data": [
  ["CC[C@H](C)[C@H]1O[C@]2(C=C[C@@H]1C)C[C@@H]1C[C@@H](C/C=C(\\C)[C@@H](O[C@H]3C[C@H](OC)[C@@H](O[C@H]4C[C@H](OC)[C@H](NC(C)=O)[C@H](C)O4)[C@H](C)O3)[C@@H](C)/C=C/C=C3\\CO[C@@H]4[C@H](O)C(C)=C[C@@H](C(=O)O1)[C@]34O)O2", "96 h"]
]}
